System: rodent lifetime carcinogenesis bioassay, tumor incidence TD50
Test Method Notes: carcinogenic potency in animals, long-term in vivo studies, CPDB compilation (AID 1745844)
Condition: mouse; strain C57BL/6J; males; in drinking water; site: duodenum; lesion: carcinoma; dosed 100 weeks; study length 100 weeks
Quantity Measured: TD50 (mg/kg/day)

OO ... 15000

---

Tested on: rodent lifetime carcinogenesis bioassay, tumor incidence TD50
Test Method Notes: carcinogenic potency in animals, long-term in vivo studies, CPDB compilation (AID 1745844)
Condition: rat; strain Harlan; males; in feed; site: jejunum; lesion: adenocarcinoma; dosed 72 weeks; study length 94 weeks
Quantity Measured: TD50

C#CC(OC(N)=O)(c1ccccc1)c1ccc(Cl)cc1 (stereo unspecified) ... 8.78 mg/kg/day

---

System: rodent lifetime carcinogenesis bioassay, tumor incidence TD50
Test Method Notes: carcinogenic potency in animals, long-term in vivo studies, CPDB compilation (AID 1745844)
Condition: rat; strain Fischer 344; males; in drinking water; site: pancreas, exocrine; lesion: acinar-cell adenoma; dosed 128 weeks; study length 128 weeks
Quantity Measured: TD50 (mg/kg/day)

COC(=O)C1=CCCN(N=O)C1 ... 7.95

---

Tested on: rodent lifetime carcinogenesis bioassay, tumor incidence TD50
Test Method Notes: carcinogenic potency in animals, long-term in vivo studies, CPDB compilation (AID 1745844)
Condition: rat; strain Fischer 344; females; in drinking water; site: liver; lesion: hyperplastic nodule; dosed 104 weeks; study length 132 weeks
Quantity Measured: TD50 (mg/kg/day)

C=CC=O ... 388

---

Test system: rodent lifetime carcinogenesis bioassay, tumor incidence TD50
Test Method Notes: carcinogenic potency in animals, long-term in vivo studies, CPDB compilation (AID 1745844)
Condition: mouse; strain CDF1; males; in feed; site: lung; lesion: adenocarcinoma; dosed 88 weeks; study length 88 weeks
Quantity Measured: TD50

Cc1nc(N)cc2[nH]c3ccccc3c12 ... 81.1 mg/kg/day

---

System: rodent lifetime carcinogenesis bioassay, tumor incidence TD50
Test Method Notes: carcinogenic potency in animals, long-term in vivo studies, CPDB compilation (AID 1745844)
Condition: rat; strain Fischer; females; in feed; site: urinary bladder; lesion: several types; types named in the paper; dosed 52 weeks; study length 68 weeks
Quantity Measured: TD50

Nc1nc(-c2ccc([N+](=O)[O-])o2)cs1 ... 30.3 mg/kg/day

---

Tested on: rodent lifetime carcinogenesis bioassay, tumor incidence TD50
Test Method Notes: carcinogenic potency in animals, long-term in vivo studies, CPDB compilation (AID 1745844)
Condition: mouse; strain B6C3F1; females; inhaled; site: liver; lesion: hepatocellular carcinoma; dosed 102 weeks; study length 104 weeks
Quantity Measured: TD50

ClCCl ... 1850 mg/kg/day

---

Tested on: rodent lifetime carcinogenesis bioassay, tumor incidence TD50
Test Method Notes: carcinogenic potency in animals, long-term in vivo studies, CPDB compilation (AID 1745844)
Condition: mouse; strain B6C3F1; males; inhaled; site: Zymbal's gland; lesion: carcinoma; dosed 13 weeks; study length 104 weeks
Quantity Measured: TD50 (mg/kg/day)

C=CC=C ... 336

---

Test system: rodent lifetime carcinogenesis bioassay, tumor incidence TD50
Test Method Notes: carcinogenic potency in animals, long-term in vivo studies, CPDB compilation (AID 1745844)
Condition: mouse; strain B6C3F1; males; by gavage; site: kidney; lesion: tubule adenoma; dosed 104 weeks; study length 104 weeks
Quantity Measured: TD50 (mg/kg/day)

Cc1cn([C@H]2C[C@H](N=[N+]=[N-])[C@@H](CO)O2)c(=O)[nH]c1=O ... 1250

---

Test system: rodent lifetime carcinogenesis bioassay, tumor incidence TD50
Test Method Notes: carcinogenic potency in animals, long-term in vivo studies, CPDB compilation (AID 1745844)
Condition: rat; strain Long-Evans; males; in feed; site: any site (literature study); lesion: malignant tumor; dosed 78 weeks; study length 104 weeks
The source made the active and inactive calls. No rule for the calls is given here.
Quantity Measured: TD50

CC(C)NCC(O)c1ccc(NS(C)(=O)=O)cc1 (stereo unspecified) ... 2270 mg/kg/day (inactive)

---

Test system: rodent lifetime carcinogenesis bioassay, tumor incidence TD50
Test Method Notes: carcinogenic potency in animals, long-term in vivo studies, CPDB compilation (AID 1745844)
Condition: mouse; strain CD-1 HaM/ICR; females; in feed; site: urinary bladder; lesion: several types; types named in the paper; dosed 68 weeks; study length 86 weeks
Quantity Measured: TD50

Nc1ccc(Oc2ccc(Cl)cc2)cc1 ... 1130 mg/kg/day

---

Tested on: rodent lifetime carcinogenesis bioassay, tumor incidence TD50
Test Method Notes: carcinogenic potency in animals, long-term in vivo studies, CPDB compilation (AID 1745844)
Condition: mouse; strain Swiss Webster; females; inhaled; site: lung; lesion: alveolar-cell adenoma; dosed 78 weeks; study length 81 weeks
Calls of active or inactive are those of the source. How the calls were made is not given here.
Quantity Measured: TD50

FC(F)OC(Cl)C(F)(F)F (stereo unspecified) ... 30000 mg/kg/day (inactive)

---

System: rodent lifetime carcinogenesis bioassay, tumor incidence TD50
Test Method Notes: carcinogenic potency in animals, long-term in vivo studies, CPDB compilation (AID 1745844)
Condition: rat; strain F344/DuCrj; males; in drinking water; site: kidney; lesion: adenoma; dosed 52 weeks; study length 52 weeks
Quantity Measured: TD50

[O-][Br+2]([O-])O ... 4.98 mg/kg/day

---

Test system: rodent lifetime carcinogenesis bioassay, tumor incidence TD50
Test Method Notes: carcinogenic potency in animals, long-term in vivo studies, CPDB compilation (AID 1745844)
Condition: rat; strain Charles River CD (Sprague-Dawley); males; in feed; site: Zymbal's gland; lesion: squamous-cell carcinoma; dosed 69 weeks; study length 69 weeks
Quantity Measured: TD50

Nc1ccc(-c2ccc(N)c(Cl)c2)cc1Cl ... 60.1 mg/kg/day

---

Test system: rodent lifetime carcinogenesis bioassay, tumor incidence TD50
Test Method Notes: carcinogenic potency in animals, long-term in vivo studies, CPDB compilation (AID 1745844)
Condition: mouse; strain B6C3F1; males; inhaled; site: any site (literature study); lesion: several types; types named in the paper; dosed 100 weeks; study length 100 weeks
Quantity Measured: TD50 (mg/kg/day)

CCCl ... 10100

---

Test system: rodent lifetime carcinogenesis bioassay, tumor incidence TD50
Test Method Notes: carcinogenic potency in animals, long-term in vivo studies, CPDB compilation (AID 1745844)
Condition: rat; strain Fischer 344; males; in feed; site: liver; lesion: hepatocellular carcinoma + neoplastic nodule; dosed 78 weeks; study length 109 weeks
Quantity Measured: TD50

Cc1ccc2c(c1[N+](=O)[O-])C(=O)c1ccccc1C2=O ... 48.8 mg/kg/day

---

Test system: rodent lifetime carcinogenesis bioassay, tumor incidence TD50
Test Method Notes: carcinogenic potency in animals, long-term in vivo studies, CPDB compilation (AID 1745844)
Condition: mouse; strain Swiss albino; males; in drinking water; site: liver; lesion: several types; types named in the paper; dosed 79 weeks; study length 79 weeks
Quantity Measured: TD50 (mg/kg/day)

NC(=O)NNc1ccccc1 ... 1790

---

Tested on: rodent lifetime carcinogenesis bioassay, tumor incidence TD50
Test Method Notes: carcinogenic potency in animals, long-term in vivo studies, CPDB compilation (AID 1745844)
Condition: mouse; strain B6C3F1; males; by gavage; site: lung; lesion: alveolar/bronchiolar adenoma + alveolar/bronchiolar carcinoma; dosed 99 weeks; study length 104 weeks
Quantity Measured: TD50 (mg/kg/day)

ClCc1ccccn1 ... 2940

---

Tested on: rodent lifetime carcinogenesis bioassay, tumor incidence TD50
Test Method Notes: carcinogenic potency in animals, long-term in vivo studies, CPDB compilation (AID 1745844)
Condition: mouse; strain B6C3F1; males; in feed; site: thyroid gland; lesion: follicular-cell carcinoma; dosed 104 weeks; study length 104 weeks
Quantity Measured: TD50 (mg/kg/day)

Cc1cc(C)nc(NS(=O)(=O)c2ccc(N)cc2)n1 ... 72100

---

Tested on: rodent lifetime carcinogenesis bioassay, tumor incidence TD50
Test Method Notes: carcinogenic potency in animals, long-term in vivo studies, CPDB compilation (AID 1745844)
Condition: hamster; strain Syrian Golden; females; by gavage; site: forestomach; lesion: carcinoma; dosed 30 weeks; study length 85 weeks
Quantity Measured: TD50 (mg/kg/day)

CCN(N=O)C(=O)NCC(C)=O ... 2.19

---

Test system: rodent lifetime carcinogenesis bioassay, tumor incidence TD50
Test Method Notes: carcinogenic potency in animals, long-term in vivo studies, CPDB compilation (AID 1745844)
Condition: rat; strain Fischer 344; males; in drinking water; site: liver; lesion: hepatocellular carcinoma; dosed 102 weeks; study length 130 weeks
Quantity Measured: TD50

C=CC(OCC)OCC ... 262 mg/kg/day

---

Entries and their measured TD50 follow.
System: rodent lifetime carcinogenesis bioassay, tumor incidence TD50
Test Method Notes: carcinogenic potency in animals, long-term in vivo studies, CPDB compilation (AID 1745844)
Condition: rat; strain Fischer 344; females; in feed; site: liver; lesion: hepatocellular adenoma + hepatocellular carcinoma + neoplastic nodule; dosed 78 weeks; study length 104 weeks
Quantity Measured: TD50 (mg/kg/day)

CCC[CH2][Sn]([CH2]CCC)([O]C(C)=O)[O]C(C)=O ... 94.4
Nc1ccc(Cl)c(N)c1 ... 2680
Cc1ccc2c(c1N)C(=O)c1ccccc1C2=O ... 115
CCc1cc(C(N)=S)ccn1 ... 508
